Each recorded value in this set is attributed to patent US9487516B2.

Tested on: Staphylococcus aureus ATCC29213
Test: Bacterial growth minimal inhibitory concentration (microdilution, cation-adjusted Mueller-Hinton Broth)
Assay type: cell-based
Conditions: methicillin-sensitive and quinolone-sensitive strain, read-out: MIC for S. aureus ATCC29213
experimental-readout: MIC (µg/mL)

O=C1COc2ccc(-n3nc(CCCN[C@@H]4Cn5c(=O)ccc6cccc4c65)oc3=O)nc2N1; 2

I = O=C1COc2ccc(-n3nc(CCCN[C@@H]4Cn5c(=O)cnc6cccc4c65)oc3=O)nc2N1
II = O=C1CSc2ccc(-n3nc(CCCN[C@H]4Cn5c(=O)cnc6ccc(F)c4c65)oc3=O)nc2N1
Query block: Between the two listed entries I and II , which has its MIC at the higher number? Answer by quoting the chosen item's label.
Result block: I

====

Test system: Staphylococcus aureus ATCC29213
Assay: Bacterial growth minimal inhibitory concentration (microdilution, cation-adjusted Mueller-Hinton Broth)
Assay type: cell-based
Details: methicillin-sensitive and quinolone-sensitive strain, read-out: MIC for S. aureus ATCC29213
experimental-readout: MIC (µg/mL)

Examples with answers:
O=C1COc2ccc(-n3nc(CCCN[C@H]4Cn5c(=O)ccc6ccc(F)c4c65)oc3=O)nc2N1; 0.125
O=c1oc(CCCN[C@@H]2Cn3c(=O)cnc4ccc(F)c2c43)nn1-c1ccc2c(c1)OCCO2; 2
O=C1COc2ccc(-n3nc(CCCN[C@@H]4Cn5c(=O)cnc6ccc(F)c4c65)oc3=O)cc2N1; 0.031
CCOc1ccc(-n2nc(CCCN[C@H]3Cn4c(=O)ccc5ccc(F)c3c54)oc2=O)cc1; 2
COc1ccc2ccc(=O)n3c2c1[C@H](NCCCc1nn(-c2ccc4c(n2)NC(=O)CO4)c(=O)o1)C3; 1
N#Cc1ccc2ccc(=O)n3c2c1[C@H](NCCCc1nn(-c2ccc4c(n2)NC(=O)CO4)c(=O)o1)C3; 0.063
CCSc1ccc(-n2nc(CCCN[C@@H]3Cn4c(=O)ccc5ccc(F)c3c54)oc2=O)cc1; 0.063
O=c1oc(CCCN[C@@H]2Cn3c(=O)ccc4ccc(F)c2c43)nn1-c1ccc2c(c1)OCCO2; 4

P = O=C1COc2ccc(-n3nc(CCCN[C@@H]4Cn5c(=O)ccc6ncc(F)c4c65)oc3=O)nc2N1
Q = CCSc1ccc(-n2nc(CCCN[C@@H]3Cn4c(=O)cnc5ccc(F)c3c54)oc2=O)cc1
R = O=C1COc2ccc(-n3nc(CCCN[C@H]4Cn5c(=O)cnc6ccc(F)c4c65)oc3=O)nc2N1
Query block: Parameters: sort_field (MIC), sort_dir (desc). Write the labels in rank order as requested.
Result block: R, P, Q

I = O=C1COc2ccc(-n3nc(CCCN[C@@H]4Cn5c(=O)ccc6ccc(F)c4c65)oc3=O)cc2N1
II = O=C1COc2ccc(-n3nc(CCCN[C@@H]4Cn5c(=O)cnc6ccc(F)c4c65)oc3=O)nc2N1
Query block: Form: Entry with minimum MIC (choose one): I / II Answer by quoting the chosen item's label.
Result block: I
(I: 0.031 µg/mL, II: 0.25 µg/mL)

A = O=C1COc2ccc(-n3nc(CCCN[C@@H]4Cn5c(=O)ccc6ccc(F)c4c65)oc3=O)nc2N1
B = CCOc1ccc(-n2nc(CCCN[C@@H]3Cn4c(=O)cnc5ccc(F)c3c54)oc2=O)cc1
C = O=C1COc2ccc(-n3nc(CCCN[C@H]4Cn5c(=O)cnc6cccc4c65)oc3=O)nc2N1
D = CCSc1ccc(-n2nc(CCCN[C@H]3Cn4c(=O)ccc5ccc(F)c3c54)oc2=O)cc1
E = O=C1COc2ccc(-n3nc(CCCN[C@H]4Cn5c(=O)ccc6ncc(F)c4c65)oc3=O)nc2N1
Query block: Hey, can you sort those compounds up there by MIC, smallest first? Write the labels in rank order as requested.
Result block: D, A, E, B, C

1 = O=c1oc(CCCN[C@H]2Cn3c(=O)ccc4ccc(F)c2c43)nn1-c1ccc2c(c1)OCCO2
2 = O=c1oc(CCCN[C@H]2Cn3c(=O)cnc4ccc(F)c2c43)nn1-c1ccc2c(c1)OCCO2
Query block: Form: Entry with minimum MIC (choose one): 1 / 2 Answer by quoting the chosen item's label.
Result block: 2
(2: 2 µg/mL, 1: 4 µg/mL)

1 = CCSc1ccc(-n2nc(CCCN[C@H]3Cn4c(=O)cnc5ccc(F)c3c54)oc2=O)cc1
2 = CCOc1ccc(-n2nc(CCCN[C@H]3Cn4c(=O)cnc5ccc(F)c3c54)oc2=O)cc1
Query block: Form: Entry with minimum MIC (choose one): 1 / 2 Answer by quoting the chosen item's label.
Result block: 1

P = O=C1COc2ccc(-n3nc(CCCN[C@H]4Cn5c(=O)cnc6ccc(F)c4c65)oc3=O)cc2N1
Q = Cc1ccc2ccc(=O)n3c2c1[C@H](NCCCc1nn(-c2ccc4c(n2)NC(=O)CO4)c(=O)o1)C3
R = CCOc1ccc(-n2nc(CCCN[C@@H]3Cn4c(=O)ccc5ccc(F)c3c54)oc2=O)cc1
Query block: Hey, can you sort those compounds up there by MIC, smallest first? Write the labels in rank order as requested.
Result block: P, Q, R
(P: 0.031 µg/mL, Q: 1 µg/mL, R: 2 µg/mL)
